Kallikrein-7 (Homo sapiens): reported IC50 for various molecules.
Sequence (P49862 whole entry): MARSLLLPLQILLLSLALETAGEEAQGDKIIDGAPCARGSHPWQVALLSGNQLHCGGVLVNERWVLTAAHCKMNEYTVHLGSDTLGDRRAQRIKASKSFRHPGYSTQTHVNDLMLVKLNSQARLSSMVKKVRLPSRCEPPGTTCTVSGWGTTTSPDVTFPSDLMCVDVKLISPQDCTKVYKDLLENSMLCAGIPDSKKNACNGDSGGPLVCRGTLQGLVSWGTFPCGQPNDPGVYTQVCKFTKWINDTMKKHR
Hi! Could you send only the number? It should be in µM, unit omitted.

| STRUCTURE | EXPERIMENTAL_RESULT |
| --- | --- |
| COc1cc(C2=Nc3nc4ccccn4c3C(=O)[C@H](Cc3ccccc3)N2)cc(OC)c1OC | 55.7 |
| Cc1ccccc1C1=Nc2nc3ccccn3c2C(=O)[C@@H](Cc2ccccc2)N1 | 95.9 |
| COc1ccc(C2=Nc3nc4ccccn4c3C(=O)[C@H](Cc3ccccc3)N2)cc1OC | 33.5 |

query: What value of measured IC50 is listed for `COc1ccc(OC)c(C2=Nc3nc4ccccn4c3C(=O)[C@H](Cc3ccccc3)N2)c1` ?
result: 80.9

query: `Cc1ccc(C2=Nc3nc4ccccn4c3C(=O)[C@H](Cc3ccccc3)N2)c(C)c1` ?
result: 83.9
